Target: T1, cSNK:BSA conjugate (bovine, head-to-tail cyclized; conjugated to BSA carrier)
T1 construct: also called BSA-cSNK
T1 sequence (P02769 25-607 limits assumed): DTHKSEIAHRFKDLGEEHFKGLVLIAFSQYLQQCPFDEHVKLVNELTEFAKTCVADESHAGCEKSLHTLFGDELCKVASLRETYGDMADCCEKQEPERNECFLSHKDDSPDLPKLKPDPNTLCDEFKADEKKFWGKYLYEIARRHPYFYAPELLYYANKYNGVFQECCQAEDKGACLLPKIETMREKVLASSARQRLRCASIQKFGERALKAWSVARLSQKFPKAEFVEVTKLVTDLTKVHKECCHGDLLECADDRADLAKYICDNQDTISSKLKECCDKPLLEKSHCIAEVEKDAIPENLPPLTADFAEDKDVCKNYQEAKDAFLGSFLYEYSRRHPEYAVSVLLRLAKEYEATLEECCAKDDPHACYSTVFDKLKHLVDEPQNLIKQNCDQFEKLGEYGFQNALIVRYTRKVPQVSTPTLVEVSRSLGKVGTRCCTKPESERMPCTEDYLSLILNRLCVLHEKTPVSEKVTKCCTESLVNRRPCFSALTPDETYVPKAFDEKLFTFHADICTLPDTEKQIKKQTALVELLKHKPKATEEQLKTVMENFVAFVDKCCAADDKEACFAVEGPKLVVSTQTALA
Experiment: BLI 2:1 fit, site 2 (kdis2); 6.25 nM row
koff listing for selected binders.
Quick note: give the figure in s⁻¹, leave out the unit.

- binder: "hu5E3-IgG4 (antibody, V domains shown, human IgG4/kappa; also called humanized 5E3 IgG4) VH: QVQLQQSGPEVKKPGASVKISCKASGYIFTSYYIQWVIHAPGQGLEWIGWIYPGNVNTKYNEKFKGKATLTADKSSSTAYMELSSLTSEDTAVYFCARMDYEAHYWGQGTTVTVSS VL: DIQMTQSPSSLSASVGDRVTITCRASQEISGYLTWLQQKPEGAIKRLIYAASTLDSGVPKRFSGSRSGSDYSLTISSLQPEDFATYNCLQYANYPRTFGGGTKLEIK"
  readingUnit: "s⁻¹"
  resultValue: 0.0229

With those in mind, consider the next binder.
Data request: Answer with the recorded koff of rehu5E3-IgG4 (antibody, V domains shown, human IgG4/kappa; also called IgG4 rehu version) VH: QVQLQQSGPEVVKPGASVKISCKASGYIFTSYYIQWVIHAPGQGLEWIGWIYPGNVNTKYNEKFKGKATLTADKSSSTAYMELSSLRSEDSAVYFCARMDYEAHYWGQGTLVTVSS VL: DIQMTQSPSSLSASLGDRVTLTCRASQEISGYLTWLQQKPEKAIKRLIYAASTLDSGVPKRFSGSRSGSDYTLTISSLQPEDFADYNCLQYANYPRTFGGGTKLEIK only.
Data returned: 0.0175
